The reported measurements were obtained from paper PMC5540273.

Listing of entries alongside the reported %Inh.
# Tested on: PFTK1
# Construct: gene CDK14
# Condition Parameters: concentration: 1 μM, replicates: in singlicate; n = 1;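 also: KINOMEscan kinase panel screen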
# number only, unit % dropped from output

- Compound: "CCn1c(-c2ccccc2)nc2cnccc21 [SB-733416]"
  Assay Result: 27
- Compound: "COC(=O)C(Cc1ccccc1)NC(=O)NC1CCN(c2ccnc(Nc3ccc(F)cc3)n2)C1 (stereo not shown) [GSK1379714]"
  Assay Result: 0
- Compound: "COc1ccc(Nc2nccc(N3CCC(NC(=O)C(C)c4ccc(Cl)cc4)C3)n2)cc1 (stereo not shown) [GSK1379735]"
  Assay Result: 28
- Compound: "CC(C)c1ccc(O)cc1Nc1ccnc2ccc(C(F)(F)F)cc12 [GW482059]"
  Assay Result: 0
- Compound: "Nc1ncnc2occ(-c3ccc4c(c3)CCN4C(=O)Cc3cc(F)ccc3F)c12 [GSK2645446]"
  Assay Result: 10

### Prompt Respond only with %Inh recorded for Cl.Cl.Cl.N#Cc1ccc(CCNc2nccc(-c3cccc(CN4CCNCC4)c3)n2)cc1 [GSK2137462]
### Response 14

### Prompt Respond only with %Inh recorded for CCn1c(-c2c(N)noc2C)nc2cnccc21 [SB-737856]
### Response 33

###

# Tested on: CAMKK2
# Condition Parameters: concentration: 1 μM, replicates: in singlicate; n = 1
Measured Quantity: %Inh (%)
# number only, unit % dropped from output

Some solved entries appear below for comparison.
- Compound: "Cc1c(Cn2c(C)c(C)n3c(=O)cc(N4CCOCC4)nc23)cccc1C(F)(F)F [GSK2328680]"
  %Inh / %: 10
- Compound: "CC(=O)c1c(C)c2cnc(Nc3ccc(N4CCNCC4)cn3)nc2n(C2CCCC2)c1=O"
  %Inh / %: 0
- Compound: "Nc1cccc(-c2ccc3c(N)n[nH]c3c2)n1 [GSK2192730]"
  %Inh / %: 22
- Compound: "Cc1c(Cn2c3ccccc3n3c(=O)cc(N4CCOCC4)nc23)cccc1C(F)(F)F [GSK2306394]"
  %Inh / %: 5
- Compound: "CSc1ccc(-c2nc3n(c2-c2ccncc2)CCC3)cc1 [SKF-105561]"
  %Inh / %: 0

Could you now consider this next compound?
### Prompt Report %Inh from CAMKK2 testing of Cn1cncc1-c1cc2c(Nc3ccc(OCc4ccccc4)cc3)ncnc2cn1 [GW281179]
### Response 32

###

# Test system: IGF1R
# Condition Parameters: concentration: 1 μM, replicates: in singlicate; n = 1
Cut-off 3% on %Inh, inclusive. At or above means Met; below means Not met.

Worked examples, 2 molecules total:
- Molecule: "CC(=O)c1cccc(NC(=O)NC2CCN(c3ccnc(Nc4ccc(F)cc4)n3)C2)c1 (stereo not drawn) [GSK1379710]"
  Classification: "Not met"
- Molecule: "CN1c2ccc(-c3ccc(C(N)=O)cc3)cc2-c2[nH]ncc2S1(=O)=O"
  Classification: "Met"

### Prompt Is it the case that Fc1ccc(-c2nn3cccc(F)c3c2-c2ccncc2)cc1 [GW475620] has %Inh reaching or exceeding 3%?
### Response Met

### Prompt Is it the case that COc1cc2ncnc(Nc3cccc(Br)c3)c2cc1OC.Cl [GI230329] has %Inh reaching or exceeding 3%?
### Response Not met

### Prompt Is it the case that Cc1c(Cn2c3ccccc3n3c(=O)cc(N4CCOCC4)nc23)cccc1C(F)(F)F [GSK2306394] has %Inh reaching or exceeding 3%?
### Response Met

### Prompt Is it the case that Cn1cncc1C(=O)NC1CCN(c2ccnc(Nc3ccc(F)cc3)n2)C1 (stereo not drawn) [GSK1379717] has %Inh reaching or exceeding 3%?
### Response Not met

### Prompt Is it the case that COc1ccc(Nc2nccc(N3CCC(NC(=O)C(C)c4ccc(Cl)cc4)C3)n2)cc1 (stereo not drawn) [GSK1379735] has %Inh reaching or exceeding 3%?
### Response Not met

### Prompt Is it the case that `CNCc1ccc2nc(NC(=O)c3ccc(C(C)(C)C)cc3)cn2c1` has %Inh reaching or exceeding 3%?
### Response Not met

### Prompt Is it the case that CS(=O)(=O)Cc1ccc(Nc2nccc(-c3c(-c4cccc(NC(=O)C5CCCCC5)c4)nn4ncccc34)n2)cc1 [GSK350559] has %Inh reaching or exceeding 3%?
### Response Met

### Prompt Is it the case that CNc1cc(-c2ccc3c(N)n[nH]c3c2)nc(N)n1 [GSK2224810] has %Inh reaching or exceeding 3%?
### Response Not met

###

Listing of entries alongside the reported %Inh.
# Test system: EPHB6
# Condition Parameters: concentration: 1 μM, replicates: in singlicate; n = 1
Quote the value and follow it with the unit of measurement.

- Compound: "Cc1nccc(-c2c(-c3ccc(F)cc3)ncn2CCCN2CCOCC2)n1.Cl [SB-282975]"
  %Inh: "15%"
- Compound: "CC(C)c1cc(-c2ccc3c(N)n[nH]c3c2)nc(N)n1 [GSK2250882]"
  %Inh: "4%"
- Compound: "CCc1ccc(-c2ccc3c(c2)-c2n[nH]cc2S(=O)(=O)N3C)cc1"
  %Inh: "0%"
- Compound: "CNCc1ccc2nc(NC(=O)c3ccc(C(C)(C)C)cc3)cn2c1"
  %Inh: "6%"
- Compound: "CNc1nc(-c2ccc3c(N)n[nH]c3c2)cc(N2C[C@@H](C(=O)NC3CCCCC3)OC[C@H]2C)n1 [GSK2375584]"
  %Inh: "0%"
- Compound: "CC[C@@H]1CO[C@H](C(=O)Nc2ccccc2)CN1c1cc(-c2ccc3c(N)n[nH]c3c2)nc(NC)n1 [GSK2376236]"
  %Inh: "3%"

Could you now consider this next compound?
### Prompt Respond only with %Inh recorded for Nc1nccc(-c2c(-c3ccc(F)cc3)ncn2C2CCN(Cc3ccccc3)CC2)n1 [SB-219980]
### Response 58%

###

Listing of entries alongside the reported %Inh.
# System: ERK5
# Construct: gene MAPK7
# Condition Parameters: concentration: 1 μM, replicates: in singlicate; n = 1
# number only, unit % dropped from output

Some solved entries appear below for comparison.
- Molecular String: "Nc1cccc(-c2ccc3c(N)n[nH]c3c2)n1"
  %Inh [%]: 8
- Molecular String: "CS(=O)(=O)Cc1ccc(Nc2nccc(-c3c(-c4cccc(NC(=O)C5CCCCC5)c4)nn4ncccc34)n2)cc1"
  %Inh [%]: 0

Could you now consider this next compound?
### Prompt Respond only with %Inh recorded for `COc1nccc(-c2c(-c3ccc(F)cc3)ncn2CCCN2CCOCC2)n1`
### Response 0

###

# Test system: GSK3A
# Condition Parameters: concentration: 1 μM, replicates: in singlicate; n = 1
Listing of entries alongside the reported %Inh.
# number only, unit % dropped from output

Some solved entries appear below for comparison.
- Compound: "COc1ccc(CSc2nnc(-c3ccc4c(c3)CCO4)o2)cc1"
  Assay Result: 75
- Compound: "CC(C)c1cc(-c2ccc3c(N)n[nH]c3c2)nc(N)n1 [GSK2250882]"
  Assay Result: 0
- Compound: "Nc1cccc(-c2ccc3c(N)n[nH]c3c2)n1 [GSK2192730]"
  Assay Result: 19
- Compound: "CN1c2ccc(-c3ccc(C(N)=O)cc3)cc2-c2[nH]ncc2S1(=O)=O"
  Assay Result: 25
- Compound: "O=c1cc(N2CCOCC2)nc2n(Cc3cccc(Cl)c3Cl)c3ccccc3n12 [GSK2299009]"
  Assay Result: 5

### Prompt Respond only with %Inh recorded for Fc1ccc(-c2nc[nH]c2-c2ccncc2)cc1 [SB-217360]
### Response 0

### Prompt Respond only with %Inh recorded for Cc1ccc(NC(=O)Nc2ccccc2F)cc1-c1ccc(C(=O)Nc2ccncc2)cc1 [GSK1398477]
### Response 25

### Prompt Respond only with %Inh recorded for CS(=O)(=O)CCNCc1nc(-c2ccc3ncnc(Nc4ccc(OCc5ccccc5)c(Cl)c4)c3c2)cs1.Cl [GW582764]
### Response 20

###

# System: RIPK1
# Condition Parameters: concentration: 1 μM, replicates: in singlicate; n = 1
Listing of entries alongside the reported %Inh.
# number only, unit % dropped from output

Some solved entries appear below for comparison.
- Molecule: "Nc1cccc(-c2ccc3c(N)n[nH]c3c2)n1 [GSK2192730]"
  %Inh, %: 18
- Molecule: "CC(C)c1cc(-c2ccc3c(N)n[nH]c3c2)nc(N)n1 [GSK2250882]"
  %Inh, %: 0
- Molecule: "COc1ccc2cc(-c3nc(-c4ccccc4C(C)C)[nH]c3-c3ccncc3)ccc2c1 [SB-660566]"
  %Inh, %: 2
- Molecule: "COc1ccc(CSc2nnc(-c3ccc4nccn4c3)o2)cc1C(F)(F)F"
  %Inh, %: 5
- Molecule: "CS(=O)(=O)Cc1ccc(Nc2nccc(-c3c(-c4cccc(NC(=O)C5CCCCC5)c4)nn4ncccc34)n2)cc1 [GSK350559]"
  %Inh, %: 13
- Molecule: "COc1ccc(Nc2nccc(NCCNC(=O)Nc3cc(C)ccc3C)n2)cc1 [GSK1379899]"
  %Inh, %: 4
- Molecule: "NS(=O)(=O)c1cccc(N/C=C2\\C(=O)Nc3ccc(S(=O)(=O)Cc4c(Cl)cccc4Cl)cc32)c1 [GSK398099]"
  %Inh, %: 0
- Molecule: "O=c1cc(N2CCOCC2)nc2n(Cc3cccc(Cl)c3Cl)c3ccccc3n12 [GSK2299009]"
  %Inh, %: 19
- Molecule: "COc1ccc(-c2coc3ccc(-c4nnc(C)o4)cc23)cc1"
  %Inh, %: 0
- Molecule: "Cc1ccc(NC(=O)Nc2ccc(Cl)cc2)cc1-c1ccc(C(=O)Nc2ccncc2)cc1 [GSK1398472]"
  %Inh, %: 0

### Prompt Respond only with %Inh recorded for CNc1nc(-c2ccc3c(N)n[nH]c3c2)cc(N2C[C@@H](C(=O)Nc3ccccc3)CC[C@H]2C)n1 [GSK2298859]
### Response 1

### Prompt Respond only with %Inh recorded for CC[C@@H]1CO[C@H](C(=O)Nc2ccccc2)CN1c1cc(-c2ccc3c(N)n[nH]c3c2)nc(NC)n1 [GSK2376236]
### Response 0

### Prompt Respond only with %Inh recorded for CCn1c(-c2ccccc2)nc2cnccc21 [SB-733416]
### Response 0

### Prompt Respond only with %Inh recorded for COC(=O)c1cccc(NC(=O)NC2CCN(c3ccnc(Nc4ccc(F)cc4)n3)C2)c1 (centres unmarked) [GSK1379725]
### Response 0
